- System: MIA PaCa-2 (pancreatic carcinoma) cells, p53R248W
- Assay type: cell-based
- stated conditions: 48 h
pIC50: −log10 of the molar value. Where a SMILES comes first, the peptide text is derived from it. [ ]: non-standard residue; d: D form. The star is where a group is joined. Stearoyl = CCCCCCCCCCCCCCCCCC(=O)*; Tic = O=C(O)[C@@H]1Cc2ccccc2CN1; Dab = NCC[C@H](N)C(=O)O
Listed here: items and their measured pIC50.
measured metric: pIC50

>  <compound>
CCCCCCCCCCCCCCCCCC(=O)N[C@@H](CCCNC(=N)N)C(=O)N[C@@H](CCCNC(=N)N)C(=O)N[C@@H](Cc1c[nH]cn1)C(=O)N[C@@H](CO)C(=O)N[C@@H](C(=O)N1CCC[C@H]1C(=O)N[C@@H](CCN)C(=O)N1CCC[C@H]1C(=O)N[C@@H](CC(=O)O)C(N)=O)C(C)C [pCAP-717, str-RRHSvP(Dab)PD-NH2] (Stearoyl-RRHS[dV]P[Dab]PD-NH2)

>  <experimental value>
6.52

$$$$
>  <compound>
CCCCCCCCCCCCCCCCCC(=O)N[C@@H](CCCNC(=N)N)C(=O)N[C@@H](CCCNC(=N)N)C(=O)N[C@@H](Cc1c[nH]cn1)C(=O)N[C@@H](CO)C(=O)N[C@@H](C(=O)N1Cc2ccccc2C[C@H]1C(=O)N[C@@H](CCN)C(=O)N1CCC[C@H]1C(=O)N[C@@H](CC(=O)O)C(N)=O)C(C)C [pCAP-712, str-RRHSv(Tic)(Dab)PD-NH2] (Stearoyl-RRHS[dV][Tic][Dab]PD-NH2)

>  <experimental value>
6.00

$$$$
>  <compound>
CCCCCCCCCCCCCCCCCC(=O)N[C@@H](CCCNC(=N)N)C(=O)N[C@@H](CCCNC(=N)N)C(=O)N[C@@H](Cc1c[nH]cn1)C(=O)N[C@@H](CO)C(=O)N[C@@H](C(=O)N1CCC[C@@H]1C(=O)N[C@@H](CCN)C(=O)N1CCC[C@H]1C(=O)N[C@H](CC(=O)O)C(=O)NCC(=O)N[C@@H](CCCNC(=N)N)C(=O)O)C(C)C [pCAP-721, str-RRHSvp(Dab)PdGR] (Stearoyl-RRHS[dV][dP][Dab]P[dD]GR-OH; C-terminus assumed)

>  <experimental value>
6.52

$$$$

====

- System: panel of cell lines expressing mutp53
- Type: cell-based
Where a SMILES comes first, the peptide text is derived from it. Bridges are numbered along the chain shown (N, C = ends). [ ]: non-standard residue; d: D form. The star is where a group is joined. Stearoyl = CCCCCCCCCCCCCCCCCC(=O)*; Tic = O=C(O)[C@@H]1Cc2ccccc2CN1; Dab = NCC[C@H](N)C(=O)O
measured metric: activity in viability assays compared with other peptides (in words)

>  <molecule>
CCCCCCCCCCCCCCCCCC(=O)N[C@@H](CCCNC(=N)N)C(=O)N[C@@H](CCCNC(=N)N)C(=O)N[C@@H](Cc1c[nH]cn1)C(=O)N[C@@H](CO)C(=O)N[C@@H](C(=O)N1Cc2ccccc2C[C@H]1C(=O)N[C@@H](CCN)C(=O)N1CCC[C@H]1C(=O)N[C@@H](CC(=O)O)C(N)=O)C(C)C [pCAP-712, str-RRHSv(Tic)(Dab)PD-NH2] (Stearoyl-RRHS[dV][Tic][Dab]PD-NH2)

>  <experimental value>
highest activity

$$$$
>  <molecule>
CCCCCCCCCCCCCCCCCC(=O)N[C@@H](CCCNC(=N)N)C(=O)N[C@@H](CCCNC(=N)N)C(=O)N[C@@H](Cc1c[nH]cn1)C(=O)N[C@@H](CO)C(=O)N[C@H]1CCCCNC(=O)[C@H](CC(=O)O)NC(=O)[C@@H]2CCCN2C(=O)[C@H](CCN)NC(=O)[C@@H]2CCCN2C1=O [pCAP-713, str-RRHSKP(Dab)PD-Cyc] (Stearoyl-RRHSKP[Dab]PD; lactam 5-C)

>  <experimental value>
highest activity

$$$$

====

- System: PANC1 (pancreatic carcinoma) cells, p53R273H
- Assay type: cell-based
- stated conditions: 48 h
Where a SMILES comes first, the peptide text is derived from it. [ ]: non-standard residue; d: D form. The star is where a group is joined. Stearoyl = CCCCCCCCCCCCCCCCCC(=O)*; Dab = NCC[C@H](N)C(=O)O
Below, each entry is listed alongside its reported IC50.

>  <molecule>
CCCCCCCCCCCCCCCCCC(=O)N[C@@H](CCCNC(=N)N)C(=O)N[C@@H](CCCNC(=N)N)C(=O)N[C@@H](Cc1c[nH]cn1)C(=O)N[C@@H](CO)C(=O)N[C@@H](C(=O)N1CCC[C@@H]1C(=O)N[C@@H](CCN)C(=O)N1CCC[C@H]1C(=O)N[C@@H](CC(=O)O)C(=O)NCC(=O)N[C@@H](CCC(=O)O)C(=O)N[C@@H](C)C(=O)O)C(C)C [pCAP-720, str-RRHSvp(Dab)PDGEA] (Stearoyl-RRHS[dV][dP][Dab]PDGEA-OH; C-terminus assumed)

>  <modifier sign>
=

>  <IC50, nM>
1240

$$$$
>  <molecule>
CCCCCCCCCCCCCCCCCC(=O)N[C@@H](CC(=O)O)C(=O)N1CCC[C@H]1C(=O)N[C@@H](Cc1c[nH]cn1)C(=O)N[C@@H](C(=O)N[C@@H](CO)C(=O)N1CCC[C@H]1C(=O)N[C@@H](CCCNC(=N)N)C(=O)N[C@@H](CCN)C(=O)N[C@@H](CCCNC(=N)N)C(N)=O)C(C)C [pCAP-722, str-DPHvSPR(Dab)R-NH2, reference compound] (Stearoyl-DPH[dV]SPR[Dab]R-NH2)

>  <modifier sign>
>

>  <IC50, nM>
40000

$$$$
>  <molecule>
CCCCCCCCCCCCCCCCCC(=O)N[C@@H](CCCNC(=N)N)C(=O)N[C@@H](CCCNC(=N)N)C(=O)N[C@@H](Cc1c[nH]cn1)C(=O)N[C@@H](CO)C(=O)N[C@@H](C(=O)N1CCC[C@H]1C(=O)N[C@@H](CCN)C(=O)N1CCC[C@H]1C(=O)N[C@@H](CC(=O)O)C(N)=O)C(C)C [pCAP-718, str-RRHSvP(Dab)PD-NH2 ion ex] (Stearoyl-RRHS[dV]P[Dab]PD-NH2)

>  <modifier sign>
=

>  <IC50, nM>
2210

$$$$

====

- Tested on: RXF-393 (renal carcinoma) cells, p53R175H
- Assay type: cell-based, human
- stated conditions: 48 h
pIC50: −log10 of the molar value. Where a SMILES comes first, the peptide text is derived from it. Bridges are numbered along the chain shown (N, C = ends). [ ]: non-standard residue; d: D form. The star is where a group is joined. Oic = O=C(O)[C@@H]1C[C@@H]2CCCC[C@@H]2N1; Arachidoyl = CCCCCCCCCCCCCCCCCCCC(=O)*; Stearoyl = CCCCCCCCCCCCCCCCCC(=O)*; Tic = O=C(O)[C@@H]1Cc2ccccc2CN1; dTic = O=C(O)[C@H]1Cc2ccccc2CN1; Dab = NCC[C@H](N)C(=O)O
The label depends only on pIC50: 1 (yes) if it is at least 6, 0 (no) if it is smaller.

>  <molecule>
CCCCCCCCCCCCCCCCCC(=O)N[C@@H](CCCNC(=N)N)C(=O)N[C@@H](CCCNC(=N)N)C(=O)N[C@H]1CCCCNC(=O)[C@H](CC(=O)O)NC(=O)[C@@H]2CCCN2C(=O)[C@H](CCN)NC(=O)[C@@H]2CCCN2C(=O)[C@@H](C(C)C)NC(=O)[C@H](CO)NC1=O [pCAP-714, str-RRKSvP(Dab)PD-Cyc] (Stearoyl-RRKS[dV]P[Dab]PD; lactam 3-C)

>  <class assignment>
1 (yes)

$$$$
>  <molecule>
CCCCCCCCCCCCCCCCCCCC(=O)N[C@@H](CCCNC(=N)N)C(=O)N[C@@H](CCCNC(=N)N)C(=O)N[C@@H](Cc1c[nH]cn1)C(=O)N[C@@H](CO)C(=O)N[C@@H](C(=O)N1CCC[C@H]1C(=O)N[C@@H](CCN)C(=O)N1CCC[C@H]1C(=O)N[C@@H](CC(=O)O)C(N)=O)C(C)C [pCAP-706, arc-RRHSvP(Dab)PD-NH2] (Arachidoyl-RRHS[dV]P[Dab]PD-NH2)

>  <class assignment>
1 (yes)

$$$$
>  <molecule>
CCCCCCCCCCCCCCCCCC(=O)N[C@@H](CCCNC(=N)N)C(=O)N[C@@H](CCCNC(=N)N)C(=O)N[C@@H](Cc1c[nH]cn1)C(=O)N[C@@H](CO)C(=O)N[C@@H](C(=O)N1CCC[C@H]1C(=O)N[C@@H](CCN)C(=O)N1CCC[C@H]1C(=O)N[C@@H](CC(=O)O)C(N)=O)C(C)C [pCAP-718, str-RRHSvP(Dab)PD-NH2 ion ex] (Stearoyl-RRHS[dV]P[Dab]PD-NH2)

>  <class assignment>
1 (yes)

$$$$
>  <molecule>
CCCCCCCCCCCCCCCCCC(=O)N[C@@H](CCCNC(=N)N)C(=O)N[C@@H](CCCNC(=N)N)C(=O)N[C@@H](Cc1c[nH]cn1)C(=O)N[C@@H](CO)C(=O)N[C@@H](C(=O)N1Cc2ccccc2C[C@H]1C(=O)N[C@@H](CCN)C(=O)N1CCC[C@H]1C(=O)N[C@@H](CC(=O)O)C(N)=O)C(C)C [pCAP-712, str-RRHSv(Tic)(Dab)PD-NH2] (Stearoyl-RRHS[dV][Tic][Dab]PD-NH2)

>  <class assignment>
1 (yes)

$$$$
>  <molecule>
CCCCCCCCCCCCCCCCCC(=O)N[C@@H](CC(=O)O)C(=O)N1CCC[C@H]1C(=O)N[C@@H](Cc1c[nH]cn1)C(=O)N[C@@H](C(=O)N[C@@H](CO)C(=O)N1CCC[C@H]1C(=O)N[C@@H](CCCNC(=N)N)C(=O)N[C@@H](CCN)C(=O)N[C@@H](CCCNC(=N)N)C(N)=O)C(C)C [pCAP-722, str-DPHvSPR(Dab)R-NH2, reference compound] (Stearoyl-DPH[dV]SPR[Dab]R-NH2)

>  <class assignment>
0 (no)

$$$$
>  <molecule>
CCCCCCCCCCCCCCCCCC(=O)N[C@@H](CCCNC(=N)N)C(=O)N[C@@H](CCCNC(=N)N)C(=O)N[C@@H](Cc1c[nH]cn1)C(=O)N[C@@H](CO)C(=O)N[C@H](CCCCN)C(=O)N1Cc2ccccc2C[C@@H]1C(=O)N[C@@H](CCN)C(=O)N1CCC[C@H]1C(=O)N[C@@H](CC(=O)O)C(N)=O [pCAP-719, str-RRHSk(tic)(Dab)PD-NH2] (Stearoyl-RRHS[dK][dTic][Dab]PD-NH2)

>  <class assignment>
1 (yes)

$$$$
>  <molecule>
CCCCCCCCCCCCCCCCCC(=O)N[C@@H](CCCNC(=N)N)C(=O)N[C@@H](CCCNC(=N)N)C(=O)N[C@@H](Cc1c[nH]cn1)C(=O)N[C@@H](CO)C(=O)N[C@@H](C(=O)N1[C@H](C(=O)N[C@@H](CCN)C(=O)N2CCC[C@H]2C(=O)N[C@@H](CC(=O)O)C(N)=O)C[C@@H]2CCCC[C@@H]21)C(C)C [pCAP-711, str-RRHSv(Oic)(Dab)PD] (Stearoyl-RRHS[dV][Oic][Dab]PD-NH2; N-terminus and C-terminus assumed)

>  <class assignment>
0 (no)

$$$$
>  <molecule>
CCCCCCCCCCCCCCCCCC(=O)N[C@@H](CCCNC(=N)N)C(=O)N[C@@H](CC(=O)O)C(=O)N1CCC[C@H]1C(=O)N[C@@H](Cc1c[nH]cn1)C(=O)N[C@@H](C(=O)N[C@@H](CO)C(=O)N1CCC[C@H]1C(=O)N[C@@H](CCCNC(=N)N)C(=O)N[C@@H](CCN)C(N)=O)C(C)C [pCAP-723, str-RDPHvSPR(Dab)-NH2, reference compound] (Stearoyl-RDPH[dV]SPR[Dab]-NH2)

>  <class assignment>
0 (no)

$$$$
>  <molecule>
CCCCCCCCCCCCCCCCCC(=O)N[C@@H](CCCNC(=N)N)C(=O)N[C@@H](CCCNC(=N)N)C(=O)N[C@H]1CCCCNC(=O)[C@H](CC(=O)O)NC(=O)[C@@H]2CCCN2C(=O)[C@H](CCN)NC(=O)[C@@H]2CCCN2C(=O)[C@@H](C(C)C)NC(=O)[C@H](CO)NC(=O)[C@H](Cc2c[nH]cn2)NC1=O [pCAP-715, str-RRKHSvP(Dab)PD-Cyc] (Stearoyl-RRKHS[dV]P[Dab]PD; lactam 3-C)

>  <class assignment>
1 (yes)

$$$$
>  <molecule>
CCCCCCCCCCCCCCCCCC(=O)N[C@@H](CCCNC(=N)N)C(=O)N[C@@H](CCCNC(=N)N)C(=O)N[C@@H](Cc1c[nH]cn1)C(=O)N[C@@H](CO)C(=O)N[C@@H](C(=O)N1CCC[C@@H]1C(=O)N[C@@H](CCN)C(=O)N1CCC[C@H]1C(=O)N[C@H](CC(=O)O)C(=O)NCC(=O)N[C@@H](CCCNC(=N)N)C(=O)O)C(C)C [pCAP-721, str-RRHSvp(Dab)PdGR] (Stearoyl-RRHS[dV][dP][Dab]P[dD]GR-OH; C-terminus assumed)

>  <class assignment>
1 (yes)

$$$$
